Quick reference for EC50, cAMP among some binders
Molecular target: T1, human GIP receptor (human, UniProt P48546 22-466)
T1 sequence (looked up): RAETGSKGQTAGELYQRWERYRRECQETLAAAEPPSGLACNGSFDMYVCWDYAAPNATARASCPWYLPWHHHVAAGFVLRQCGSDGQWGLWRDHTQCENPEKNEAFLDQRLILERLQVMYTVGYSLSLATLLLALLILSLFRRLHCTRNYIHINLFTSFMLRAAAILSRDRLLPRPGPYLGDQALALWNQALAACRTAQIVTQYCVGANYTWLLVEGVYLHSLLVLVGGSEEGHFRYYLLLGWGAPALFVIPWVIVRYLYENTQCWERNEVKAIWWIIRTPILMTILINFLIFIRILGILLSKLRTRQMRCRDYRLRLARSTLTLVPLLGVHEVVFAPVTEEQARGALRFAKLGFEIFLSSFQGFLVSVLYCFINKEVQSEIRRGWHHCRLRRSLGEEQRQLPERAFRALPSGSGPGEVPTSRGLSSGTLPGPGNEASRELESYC
Assay: cell-based or functional assay
*1 amine or outer side, *2 acyl side, *3 side chain or, on linkers, in order; H or OH if unused. Where no end group is shown, it is not given here. Side-chain parts run from the residue outwards. [ ]: non-standard residue; d: D form. The star is where a group is joined. αMePhe(2-F) = C[C@](N)(Cc1ccccc1F)C(=O)O; γGlu = O=C(O)[C@H](CCC(=O)[*:2])N[*:1]; C14 diacid = O=C(O)CCCCCCCCCCCCC(=O)*; αMeY = C[C@](N)(Cc1ccc(O)cc1)C(=O)O; αMeF = C[C@](N)(Cc1ccccc1)C(=O)O; αMeL = CC(C)C[C@](C)(N)C(=O)O; Orn = NCCC[C@H](N)C(=O)O; AEEA = NCCOCCOCC(=O)O; Aib = CC(C)(N)C(=O)O
REPORTED ENDPOINT: EC50, cAMP

BINDER	REPORTED ENDPOINT	MEASURED RESULT
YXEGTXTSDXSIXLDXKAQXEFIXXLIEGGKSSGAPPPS (Aib2, αMeF(2F)6, 4Pal10, αMeL13, Orn16, Orn20, D-Glu24, αMeY25, K17 and K31: K(AEEA2-(γ-Glu)-CO-(CH2)12-CO2H), C-terminal NH2) [Example 149]	EC50, cAMP	0.0791 nM
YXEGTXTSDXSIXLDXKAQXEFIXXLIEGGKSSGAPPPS (Aib2, αMeF(2F)6, 4Pal10, αMeL13, Orn16, Aib20, D-Glu24, αMeY25, K17 and K31: K((εK)-(γ-Glu)-(γ-Glu)-CO-(CH2)12-CO2H), C-terminal NH2) [Example 39]	EC50, cAMP	0.0238 nM
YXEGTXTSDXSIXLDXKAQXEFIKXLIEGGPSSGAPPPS (Aib2, αMeF(2F)6, 4Pal10, αMeL13, Orn16, Aib20, αMeY25, K17 and K24: K(AEEA2-(γ-Glu)-CO-(CH2)14-CH3), C-terminal NH2) [Example 22]	EC50, cAMP	0.00656 nM
YXEGTXTSDXSIXLDXKAQXEFIXXLIEGKPSSGAPPPS (Aib2, αMeF(2F)6, 4Pal10, αMeL13, Orn16, Aib20, D-Glu24, αMeY25, K17 and K30: K(AEEA2-(γ-Glu)-CO-(CH2)12-CO2H), C-terminal NH2) [Example 18]	EC50, cAMP	0.0226 nM
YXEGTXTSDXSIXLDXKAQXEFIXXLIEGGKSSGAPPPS (Aib2, αMeF6, αMeF10, αMeL13, Orn16, Aib20, D-Glu24, αMeY25, K17 and K31: K(AEEA2-(γ-Glu)-CO-(CH2)12-CO2H), C-terminal NH2) [Example 45]	EC50, cAMP	0.0517 nM
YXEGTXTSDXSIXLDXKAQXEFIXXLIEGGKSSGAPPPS (Aib2, αMeF(2F)6, 2FA10, αMeL13, Orn16, Aib20, D-Glu24, αMeY25, K17 and K31: K(AEEA2-(γ-Glu)-CO-(CH2)12-CO2H), C-terminal NH2) [Example 143]	EC50, cAMP	0.022 nM
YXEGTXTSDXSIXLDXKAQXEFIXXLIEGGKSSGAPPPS (Aib2, αMeF(2F)6, ChA10, αMeL13, Orn16, Aib20, D-Glu24, αMeY25, K17 and K31: K(AEEA2-(γ-Glu)-CO-(CH2)12-CO2H), C-terminal NH2) [Example 98]	EC50, cAMP	0.0148 nM
YXEGTXTSDXXIXLDXKAQXEFIXXLIEGGKSSGAPPPS (Aib2, αMeF(2F)6, 4Pal10, Aib11, αMeL13, Orn16, Aib20, D-Glu24, αMeY25, K17 and K31: K(AEEA2-(γ-Glu)-CO-(CH2)12-CO2H), C-terminal NH2) [Example 89]	EC50, cAMP	0.0301 nM
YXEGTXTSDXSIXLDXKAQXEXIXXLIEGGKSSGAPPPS (Aib2, αMeF(2F)6, 4Pal10, αMeL13, Orn16, Aib20, 3,5FPhe22, D-Glu24, αMeY25, K17 and K31: K(AEEA2-(γ-Glu)-CO-(CH2)12-CO2H), C-terminal NH2) [Example 65]	EC50, cAMP	0.0139 nM
YXEGTXTSDVSIXLDXKAQXEXIKXLIEGGPSSGAPPPS (Aib2, αMeF(2F)6, αMeL13, Orn16, Aib20, αMeF22, αMeY25, K17 and K24: K(AEEA2-(γ-Glu)-CO-(CH2)12-CO2H), C-terminal NH2) [Example 118]	EC50, cAMP	0.0547 nM
Y[Aib]EGT[αMePhe(2-F)]TSDV[Aib]I[αMeL]LD[Orn]K([AEEA-AEEA-γGlu-C14 diacid])AQ[Aib]E[αMeF]IK([AEEA-AEEA-γGlu-C14 diacid])[αMeY]LIEGGPSSGAPPPS-NH2 [Example 119]	EC50, cAMP	0.0863 nM
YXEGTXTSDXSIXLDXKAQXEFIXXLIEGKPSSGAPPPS (Aib2, αMeF(2F)6, 4Pal10, αMeL13, Orn16, Aib20, D-Glu24, αMeY25, K17 and K30: K(AEEA2-(γ-Glu)-CO-(CH2)14-CH3), C-terminal NH2) [Example 24]	EC50, cAMP	0.00266 nM
